Target: recombinant human FLAP protein (Homo sapiens)
Construct: made in house; host or cells: Sf9 insect cells (100,000×g membrane pellet used)
Sequence (P20292 whole entry): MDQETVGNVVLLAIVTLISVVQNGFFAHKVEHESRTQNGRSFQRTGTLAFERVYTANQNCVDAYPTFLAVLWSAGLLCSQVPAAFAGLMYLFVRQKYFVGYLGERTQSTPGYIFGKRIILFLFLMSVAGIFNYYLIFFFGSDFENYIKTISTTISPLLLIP
Test: FLAP binding assay (SPA, displacement of [125I]L-691,831)
Details: membranes of sf9 cells expressing recombinant human FLAP; [125I]L-691,831 probe; read-out: FLAP binding IC50
Description: Assessment of Biological Properties 1. Binding Assay Compounds are assessed for the ability to bind to FLAP in a binding assay that measures compound-specific displacement of an iodinated (^125I) FLAP inhibitor via a Scintillation Proximity Assay format (adapted from S. Charleson et al., Mol. Pharmacol., 1992, 41, 873-879). Cell pellets produced from sf9 insect cells expressing recombinant human FLAP protein are resuspended in buffer A [15 mM Tris-HCl (pH 7.5), 2 mM MgCl2, 0.3 mM EDTA, 1 mM PMSF]. […]
Quick list: IC50 per entry.
measuredMetric: IC50 (nM)

{"columns": ["compound", "target", "endpointUnit", "valueReported"],
 "data": [
  ["Cn1cc(-c2nc([C@](C)(c3ccc(-c4cnc(N)nc4)cc3)C3CC3)no2)cn1", "recombinant human FLAP protein (Homo sapiens)", "nM", 18],
  ["CN(C)C(=O)Cn1cc(-c2nc([C@](C)(c3ccc(-c4cnc(N)nc4)cc3)C3CC3)no2)cn1 (single isomer, unassigned)", "recombinant human FLAP protein (Homo sapiens)", "nM", 150],
  ["COCCN(C)C(=O)Cn1cc(-c2nc([C@@](C)(c3ccc(-c4cnc(N)nc4)cc3)C3CC3)no2)cn1", "recombinant human FLAP protein (Homo sapiens)", "nM", 6],
  ["CC(C)C(C)(c1ccc(-c2cnc(N)nc2)cc1)c1noc(-c2ncc[nH]2)n1 (stereo not shown)", "recombinant human FLAP protein (Homo sapiens)", "nM", 10],
  ["CC(C)C(C)(c1ccc(-c2cnc(N)nc2)cc1)c1noc(C(C)(C)CC(=O)O)n1 (stereo not shown)", "recombinant human FLAP protein (Homo sapiens)", "nM", 110],
  ["CC(C)C(C)(c1ccc(-c2cnc(N)nc2)cc1)c1noc(CCC(=O)O)n1 (stereo not shown)", "recombinant human FLAP protein (Homo sapiens)", "nM", 350],
  ["Cn1cc(-c2nc([C@](C)(c3ccc(-c4cnc(N)nc4)cc3)C3CCC3)no2)cn1", "recombinant human FLAP protein (Homo sapiens)", "nM", 140]
]}

---

Biological target: recombinant human FLAP protein (Homo sapiens)
Construct: made in house; host or cells: Sf9 insect cells (100,000×g membrane pellet used)
Test: FLAP binding assay (SPA, displacement of [125I]L-691,831)
Conditions: membranes of sf9 cells expressing recombinant human FLAP; [125I]L-691,831 probe; read-out: FLAP binding IC50
measuredMetric: IC50 (nM)

{"columns": ["compound", "target", "endpointUnit", "valueReported"],
 "data": [
  ["CC(C)C(C)(c1ccc(-c2cnc(N)nc2)cc1)c1noc(-c2ccc[nH]c2=O)n1 (centres unmarked) [Example 12]", "recombinant human FLAP protein (Homo sapiens)", "nM", 3.3],
  ["CC(C)C(C)(c1ccc(-c2cnc(N)nc2)cc1)c1noc(N2CCNCC2)n1 (centres unmarked) [Example 83]", "recombinant human FLAP protein (Homo sapiens)", "nM", 26],
  ["CNC1CCN(c2nc(C(C)(c3ccc(-c4cnc(N)nc4)cc3)C(C)C)no2)CC1 (centres unmarked) [Example 217]", "recombinant human FLAP protein (Homo sapiens)", "nM", 90],
  ["CC(c1ccc(-c2cnc(N)nc2)cc1)(c1noc(-c2cn(C3COC3)cn2)n1)C1CC1 (centres unmarked) [Example 207]", "recombinant human FLAP protein (Homo sapiens)", "nM", 92],
  ["CC(C)[C@@](C)(c1ccc(-c2cnc(N)nc2)cc1)c1noc(-c2cn[nH]c2)n1 [Example 78]", "recombinant human FLAP protein (Homo sapiens)", "nM", 1.3],
  ["CN(C)C(=O)Cn1cc(-c2nc([C@@](C)(c3ccc(-c4cnc(N)cn4)cc3)C3CC3)no2)cn1 [Example 176]", "recombinant human FLAP protein (Homo sapiens)", "nM", 1.2],
  ["C[C@](c1ccc(-c2ccc(N)nc2)cc1)(c1noc(N2CCC(O)CC2)n1)C1CC1 [Example 283]", "recombinant human FLAP protein (Homo sapiens)", "nM", 16],
  ["CC(C)(O)CNc1cnc(-c2nc([C@@](C)(c3ccc(-c4cnc(N)nc4)cc3)C3CC3)no2)cn1 [Example 50]", "recombinant human FLAP protein (Homo sapiens)", "nM", 1.3]
]}
